test summary: Drug level in nude mouse plasma at 50 mg/kg, po after 24 hrs
Type: ADME, organism-based
Design: dose 50 mg/kg, route oral
readout label: concentration at 24 h (ng/mL)
Value expressed in ng/mL; do not type the unit.

COc1cc(Nc2c(C#N)cnc3cc(NCCCN4CCN(C)CC4)c(OC)cc23)c(Cl)cc1Cl : 100
COc1cc(Nc2c(C#N)cnc3cc(NCCCN(C)C)c(OC)cc23)c(Cl)cc1Cl : 80

Fill blank: measured concentration at 24 h of the molecule `COc1cc(Nc2c(C#N)cnc3cc(OCCCN4CCN(C)CC4)c(OC)cc23)c(Cl)cc1Cl` is ____.
47
